Recorded concentration at maximum MFI for the following binders
# experimental_system: T1, cynomolgus monkey GITR at the cell surface (cynomolgus monkey)
# T1 construct: whole, on cells; also called cyno GITR+ cells
# test_protocol: flow cytometry, cyno GITR-transfected murine blastoma cells, 10,000-13.7 ng/ml
test_readout: concentration at maximum MFI

* chimeric anti-GITR IgG1 mVH/mVL (6C8 murine v-domains) (antibody, V domains shown, Full-length human IgG1, kappa; also called GITR-mVH/mVL; chimeric IgG) VH: QVTLKESGPGILKPSQTLSLTCSFSGFSLSTSGMGVGWIRQPSGKGLEWLAHIWWDDDKYYNPSLKSQLTISKDTSRNQVFLKITSVDTADAATYYCARTRRYFPFAYWGQGTLVTVSS VL: DIVMTQSQKFMSTSVGDRVSVTCKASQNVGTNVAWYQQKPGQSPKALIYSASYRYSGVPDRFTGSGSGTDFTLTINNVHSEDLAEYFCQQYNTDPLTFGAGTKLEIK | ~1110 ng/mL
* G-G10 IgG1 (antibody, V domains shown, Human IgG1) VH: EVQLVESGGGLVQPGGSLRLSCAASGFSLSTFGYGVGWVRQAPGKGLEWLAHIWWDDDKYYVDSVKGRFTISRDNAKNSLYLQMNSLRAEDTAVYYCARTRQYFPFAYWGQGTLVTVSS VL: EIVLTQSPATLSLSPGERATLSCRASQSVGTNLAWYQQKPGQAPRLLIYYASYRYTGIPARFSGSGSGTDFTLTISSLEPEDFAVYYCQQYSNDPLTFGGGTKVEIK | ~1110 ng/mL
* VH3/VL2 IgG1 (antibody, V domains shown, Human IgG1; template of the mutagenesis library; also called G-VH3/VL2; VH3 family) VH: EVQLVESGGGLVQPGGSLRLSCAASGFSLSTSGMGVGWVRQAPGKGLEWLAHIWWDDDKYYVDSVKGRFTISRDNAKNSLYLQMNSLRAEDTAVYYCARTRRYFPFAYWGQGTLVTVSS VL: EIVLTQSPATLSLSPGERATLSCRASQNVGTNVAWYQQKPGQAPRLLIYSASYRYSGIPARFSGSGSGTDFTLTISSLEPEDFAVYYCQQYNTDPLTFGGGTKVEIK | ~1110 ng/mL
